target_or_system: T1, TPP-2305, hTNFRSF12 amino acids a28-80 (recombinant human TWEAKR protein) (human, UniProt Q9NP84 28-80)
T1 construct: Soluble monomeric antigen, injected as analyte over the captured antibodies; Bought protein
method_summary: SPR (Biacore T100), antibody captured, TWEAKR TPP-2305 as analyte, 1:1 model
value_kind: kon (M⁻¹ s⁻¹)
One number for each entry, in M⁻¹ s⁻¹.

Request: Requested read-out: kon. Entry: P3G5(TPP-2195) (antibody, mouse IgG2a, kappa, V domains shown, Comparative antibody, murine IgG2a; variable domains from WO2009/140177 with added constant regions) VH: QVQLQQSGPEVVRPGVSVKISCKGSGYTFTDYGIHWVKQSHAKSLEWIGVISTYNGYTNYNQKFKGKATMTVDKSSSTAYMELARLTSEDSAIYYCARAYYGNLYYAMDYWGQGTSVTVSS VL: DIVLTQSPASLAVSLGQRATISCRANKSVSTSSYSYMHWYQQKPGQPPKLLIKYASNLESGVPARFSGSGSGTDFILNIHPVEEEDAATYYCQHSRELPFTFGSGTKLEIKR
Response: 2.31e+06
